Target: Relaxin receptor 2 (Homo sapiens)
Test: qHTS Assay for Agonists of the Relaxin Receptor RXFP1: RXFP2 Hit Validation; also: nearly all actives have a fitted effect of over 65% in size;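 as to activation: 0% = buffer only basal cAMP and 100% = 29 nM porcine relaxin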
Conditions: HEK293 RXFP2 cAMP TR-FRET, 30 min; series mostly up to 115 µM
Inconclusive results are not listed. The source made the active and inactive calls. Calls follow the shape of the dose curve; as a rule, active = well fitted activation curve with a large enough effect; inconclusive = small, poorly fitted or top-dose-only effect; inactive = flat fitted curve, though single readings scatter.
Classes used: active, inactive

1) O=C(O)c1ccc(N2C(=O)c3cccc4c(C(=O)O)ccc(c34)C2=O)cc1: active
2) O=c1oc2cc(O)c(Cl)cc2c2ccccc12: active
3) CCn1c(=O)c2cc(C(=O)Nc3cccc(C(C)=O)c3)sc2c2ccccc21: inactive
4) CN(C)c1ccc2nc3c(=O)[nH]c(=O)nc-3n(CC(O)C(O)C(O)CO)c2c1 (stereo not drawn): inactive
5) N#Cc1c(N)nc(SCC(=O)C23CC4CC(CC(C4)C2)C3)c(C#N)c1-c1ccc(Cl)cc1: active
6) CCOP1(=O)OCC2OC(n3cnc4c(N)ncnc43)C(O)C2O1 (stereo not drawn): active
7) Cn1c(N)c(C(=O)CSc2nnc(NC3CCCCC3)s2)c(=O)n(C)c1=O: inactive
8) CN1CCN(C(=O)CCc2nnc3ccc(N4CCC5(CC4)OCCO5)nn23)CC1: inactive
9) CC(C(=O)Nc1cccnc1)n1cc([N+](=O)[O-])cn1 (stereo not drawn): inactive
10) CCOc1ccc(NC(=O)CSc2ccc3nnc(-c4cccnc4)n3n2)cc1: active
11) Cn1c(=O)c2c(ncn2CC(=O)NC2CCCCC2)n(C)c1=O: active
12) COc1ccc(S(=O)(=O)Nc2ccccn2)c(C)c1C: inactive
13) Cc1ccc(C(=O)Nc2ccccc2C(=O)NCc2ccco2)cc1: inactive
14) CCn1c(SCC(=O)Nc2ccc(NC(C)=O)cc2)nc2c1c(=O)n(C)c(=O)n2C: active
15) CCc1ccc2n(-c3ccc(OC)cc3)c([S-])c(C(=O)Nc3cc(C)cc(C)c3)[n+]2c1: active
16) CC(=O)Nc1ccc(NC(=O)CSc2ccc3nnc(-c4ccccn4)n3n2)cc1: inactive
17) Cc1cccc(-c2nnc(SCC(=O)NC3CC3)n2C)c1: inactive
18) O=C(O)c1cccc(CSc2nnc(Cc3ccccc3)o2)c1: inactive
19) O=C(O)CCNc1ccc(NCCC(=O)O)c2c1C(=O)c1ccccc1C2=O: inactive
20) Cc1nc2scc(C)n2c(=O)c1S(=O)(=O)N1CCN(c2ccccn2)CC1: active
21) C=C[C@@]1(C)CC(=O)[C@]2(O)[C@@]3(C)[C@@H](O)CCC(C)(C)[C@@H]3[C@H](O)[C@H](OC(C)=O)[C@@]2(C)O1: active
22) CCn1c(=O)c2sccc2n2c(CCCC(=O)NCc3cccnc3)nnc12: inactive
23) Cc1cccc(NC(=O)c2ccccc2NC(=O)C2CCCCC2)c1C: inactive
24) S=c1nc[nH]c2c1[nH]c1ccccc12: active
25) CCN(CC)CCCN1C=C2C(=O)C(C)(OC(=O)C3CCCC3)C(=O)C=C2C=C1c1ccsc1 (stereo not drawn): inactive
26) CCN(CC)S(=O)(=O)c1ccc2c(c1)nc(SCc1nc3ccsc3c(=O)[nH]1)n2CC: active
27) CC1(C)O[C@@H]2[C@H](O1)[C@@H](COS(=O)(=O)O)O[C@H]2n1cnc2c(N)ncnc21: active
28) Cc1ccc(C(=O)Nc2cccc(C(F)(F)F)c2)cc1NC(=O)c1cnnc2ccccc12: inactive
29) CCOc1ccc2cc(C#N)c(SCC(=O)NC(C)CC)nc2c1 (stereo not drawn): active
30) O=S(=O)(c1cccc(-c2cn3cccnc3n2)c1)N1CCOCC1: active
31) CC(=O)c1sc(NC(=O)C(C)C)nc1C: active
32) CCN(CC)S(=O)(=O)c1ccc(C(=O)NCCN2C(=O)S/C(=C\c3cccnc3)C2=O)cc1: active
33) CCOC(=O)N1CCN(S(=O)(=O)c2c(C)nc3scc(C)n3c2=O)CC1: active
34) O=C(Nc1cccc(C(F)(F)F)c1)c1ccccc1NC(=O)C1CCCCC1: inactive
35) Cn1c(=O)c2sccc2n2c(CCCC(=O)NCCc3ccc(S(N)(=O)=O)cc3)nnc12: active
36) O=C(Nc1ccccc1C(=O)Nc1ccc(F)cc1)c1ccco1: inactive
37) CC1(C)Cc2nc3sc4c(SCC(=O)NC(c5ccccc5)c5ccccc5)ncnc4c3cc2CO1: active
38) O=C(Nc1ccccc1C(=O)NC1CCCCC1)c1ccco1: inactive
39) CCN(CC)c1ccc(S(=O)(=O)N2CCOCC2)cc1NC(=O)CSc1nncn1C: active
40) COc1ccc(Nc2ncc(C#N)c(N)n2)c(OC)c1: inactive
41) O=C(O)CSc1ccnc2cc(Cl)ccc12: active
42) O=C(Oc1ccccc1)Oc1ccc2c(c1)oc(=O)c1ccccc12: active
43) Cc1cc(C)c(NC(=O)CS(=O)CC(=O)Nc2ccc(F)cc2F)c(C)c1 (stereo not drawn): inactive

----------
Biological target: Relaxin receptor 2 (Homo sapiens)
Test: qHTS Assay for Agonists of the Relaxin Receptor RXFP1: RXFP2 Hit Validation; also: nearly all actives have a fitted effect of over 65% in size;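 as to activation: 0% = buffer only basal cAMP and 100% = 29 nM porcine relaxin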
Conditions: HEK293 RXFP2 cAMP TR-FRET, 30 min; series mostly up to 115 µM
Results filed as inconclusive are left out. The source made the active and inactive calls. Calls come from the whole dose curve; as a rule, active = well fitted activation curve with a large enough effect; inconclusive = small, poorly fitted or top-dose-only effect; inactive = flat fitted curve, though single readings scatter.
Classes used: active, inactive

1) O=C(Nc1ccccc1)c1ccccc1NC(=O)C1CCCCC1: inactive
2) O=C(Cn1cnc2c(nnn2-c2ccc(F)cc2)c1=O)NCC1CCCO1 (configuration not stated): active
3) N#CCCSc1ncnc2c1oc1ccccc12: active
4) CCOC(=O)CNC(=O)CSc1ccc2nnc(-c3cccnc3)n2n1: inactive
5) N#C/C(=C/c1ccc(OCc2ccccc2)cc1)C(=O)NC1CCCCC1: inactive
6) O=c1c2ccccc2cnn1Cc1n[nH]c(=S)n1-c1ccc(F)c(Cl)c1: active
7) NS(=O)(=O)c1ccc(CCNC(=O)C2CCN(c3ncnc4c3nc3n4CCCCC3)CC2)cc1: active
8) c1ccc(COn2nnc3ccccc32)c(COn2nnc3ccccc32)c1: inactive
9) O=C(O)c1ccc(CN2C(=O)c3ccc(C(=O)O)cc3C2=O)cc1: inactive
10) CCCCn1c(SCC(=O)N2CCOCC2)nc2c1c(=O)n(C)c(=O)n2C: active
11) Cc1ccnc(NS(=O)(=O)c2ccc(N3C(=O)c4ccccc4C3=O)cc2)n1: active
12) CCc1cc2cc3c(cc2nc1SCC(=O)Nc1nccs1)OCO3: active
13) COc1ccc(CN2C(=O)c3cccnc3C2=O)cc1S(=O)(=O)NC1CCCCC1: active
14) O=C(O)c1cc(-c2ccco2)nc2ccc(Br)cc12: active
15) Brc1ccc2ncnc(NCc3cccnc3)c2c1: active
16) CN(Cc1ccccc1)C(=O)c1ccccc1NC(=O)c1ccco1: inactive
17) Cc1ccc(CN(C)C(=O)c2ccccc2NC(=O)c2ccccc2)o1: inactive
18) COC(=O)c1cc(CN2C(=O)c3ccccc3C2=O)c(O)c([N+](=O)[O-])c1: active
19) COc1ccc(S(=O)(=O)N2CCOCC2)cc1NC(=O)CSc1nnc2ccccn12: active
20) CCCn1c(SCC(=O)Nc2ccc(NC(C)=O)cc2)nc2c1c(=O)n(C)c(=O)n2C: active
21) O=C(Nc1ccccc1C(=O)Nc1ccccc1C(=O)NCc1ccco1)c1ccco1: inactive
22) Cc1cc(C)n(C(=O)CCCn2cc([N+](=O)[O-])cn2)n1: inactive

----------
Molecular target: Relaxin receptor 2 (Homo sapiens)
Experiment: qHTS Assay for Agonists of the Relaxin Receptor RXFP1: RXFP2 Hit Validation; also: nearly all actives have a fitted effect of over 65% in size;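 as to activation: 0% = buffer only basal cAMP and 100% = 29 nM porcine relaxin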
Conditions: HEK293 RXFP2 cAMP TR-FRET, 30 min; series mostly up to 115 µM
Results filed as inconclusive are left out. Calls of active or inactive are those of the source. The call rests on the fitted dose curve; in most records, active means well fitted activation curve with a large enough effect; inconclusive means small, poorly fitted or top-dose-only effect; inactive means flat fitted curve, though single readings scatter.
Classes used: true (1) (active), false (0) (inactive)

1. CCCC(=O)Nc1ncnc2c1ncn2[C@@H]1O[C@@H]2COP(=O)(O)O[C@H]2[C@H]1OC(=O)CCC: true (1)
2. CCOC(=O)CNC(=O)CSc1nc2c(C)cccc2cc1CC: true (1)
3. NC(=O)c1ccccc1NC(=O)CC12CC3CC(CC(C3)C1)C2: false (0)
4. CCN1CCN(C(=O)CCc2nnc3ccc(N4CCC5(CC4)OCCO5)nn23)CC1: true (1)
5. Cc1cc(C)nc(/N=C(\N)Nc2ccc(S(=O)(=O)Nc3nccc(C)n3)cc2)n1: true (1)
6. COc1ccc(NC(=O)CCCc2nnc3n(C)c(=O)c4sccc4n23)cc1: true (1)
7. c1ccc(-c2nnc(-c3ccccn3)c(-c3ccccn3)n2)nc1: false (0)
8. COC(=O)c1c(N2C(=O)CC(Sc3ncccc3C(=O)O)C2=O)sc(C)c1C (stereo not given): false (0)
9. CC(C)n1cnc2c(N(C)c3cccc(Cl)c3)nc(N(CCO)CCO)nc21: false (0)
10. CCOC(=O)CSc1nc(=O)n2cc(C)ccc2n1: false (0)
